// reported cytotoxicity at 70.5 h for each item listed
test: Human HepG2 cell viability assay in 384 well format; assay type: toxicity, cell-based; design: dose 125 nL, time 70.5 hour; concentration not given beside the values; conditions: HepG2 cells, read-out: Inhibition
PARAMETER: cytotoxicity at 70.5 h (%)

COMPOUND: O=C(C1CCOCC1)N1CC[C@@H](O)[C@@H]1Cc1ccncc1
SCALE_UNIT: %
RECORDED_VALUE: -0.548
--
COMPOUND: Cc1ccc(-c2c[nH]c([C@@H]3COCCN3Cc3ncc[nH]3)n2)cc1
SCALE_UNIT: %
RECORDED_VALUE: 6.46
--
COMPOUND: CN1CCOC(CNCc2coc(-c3cccc(F)c3)n2)C1 (stereo unspecified)
SCALE_UNIT: %
RECORDED_VALUE: 36.2
--
COMPOUND: CNS(=O)(=O)c1cccc(C(C)NCc2cccc(O)c2)c1 (stereo unspecified)
SCALE_UNIT: %
RECORDED_VALUE: -11.9
--
COMPOUND: CN1CCN(Cc2cnc3n2CCN(C(=O)c2ccoc2)C3)CC1
SCALE_UNIT: %
RECORDED_VALUE: -7.31
--
COMPOUND: O=C(c1cccnc1)N1CCCC2(CCN(c3ccsc3)C2=O)C1 (stereo unspecified)
SCALE_UNIT: %
RECORDED_VALUE: 13.9
--
COMPOUND: CN(C)C(=O)c1ccc2c(c1)N(C)C(CC(=O)NC(CO)CO)CO2 (stereo unspecified)
SCALE_UNIT: %
RECORDED_VALUE: -7.74
--
COMPOUND: Cc1csc([C@@H]2C[C@@H]3CCN(Cc4cnn(C)c4)C[C@H]3O2)n1
SCALE_UNIT: %
RECORDED_VALUE: -8.46
--
COMPOUND: NC(=O)N1CCC(C(=O)NCc2nncn2-c2ccccc2)CC1
SCALE_UNIT: %
RECORDED_VALUE: 1.01
--
COMPOUND: CC(C)CN1CC[C@@H]2[C@H](CC1)N(C(=O)c1ccccc1)CCS2(=O)=O
SCALE_UNIT: %
RECORDED_VALUE: -1.5
--
COMPOUND: O=C(CSc1ccncc1)N1CCC2(CC1)c1ccccc1CC2O (stereo unspecified)
SCALE_UNIT: %
RECORDED_VALUE: -5.15
--
COMPOUND: Cc1nccn1-c1ccc(CN2CC3C[C@@H](O)CN3C[C@@H]2C)cc1 (stereo partly specified)
SCALE_UNIT: %
RECORDED_VALUE: -7.07
--
COMPOUND: COCCNC(=O)c1cc(C(C)C)nc(N2CCCCC2)n1
SCALE_UNIT: %
RECORDED_VALUE: -9.32
--
COMPOUND: Cn1cc(-c2csc(N3CCN(C(=O)OC(C)(C)C)CC3)n2)cn1
SCALE_UNIT: %
RECORDED_VALUE: -2.04
--
COMPOUND: Cc1noc(C)c1C(=O)NCCN1CCN(S(C)(=O)=O)CC1
SCALE_UNIT: %
RECORDED_VALUE: -1.17
--
COMPOUND: COc1cc(-c2cccc3c2OC(CN)C3)cc(OC)c1OC (stereo unspecified)
SCALE_UNIT: %
RECORDED_VALUE: -1.4
--
COMPOUND: COCc1ccc(C(=O)N2CCC(c3cc4nccnc4[nH]3)CC2)cc1
SCALE_UNIT: %
RECORDED_VALUE: -14.3
--
COMPOUND: Cc1ccc(CNC(=O)N2CCN(Cc3ccsc3)CC2)n1C
SCALE_UNIT: %
RECORDED_VALUE: 30.9
--
COMPOUND: CC(C)C(C)N(Cc1ccccn1)Cc1ccco1 (stereo unspecified)
SCALE_UNIT: %
RECORDED_VALUE: -22.8
--
COMPOUND: CCN(CC)CCNC(=O)c1cnc(C(C)(C)C)s1
SCALE_UNIT: %
RECORDED_VALUE: -6.77
--
COMPOUND: Cc1cs/c(=N/C(=O)c2csc(NCC(C)C)n2)[nH]1
SCALE_UNIT: %
RECORDED_VALUE: -4.1
--
COMPOUND: Cc1cc(N2CCCC(OC(=O)CCc3cnn(C)c3)C2)nc(C)n1 (stereo unspecified)
SCALE_UNIT: %
RECORDED_VALUE: -11.2
--
COMPOUND: Nc1cc(N2CCC(c3cc(Cc4ccccc4)n[nH]3)CC2)ccn1
SCALE_UNIT: %
RECORDED_VALUE: 2.05
--
COMPOUND: O=C(COCc1ccccc1Cl)N1CCCC(n2cccn2)C1 (stereo unspecified)
SCALE_UNIT: %
RECORDED_VALUE: 3.17
--
COMPOUND: COCCCC(=O)N1CC(=O)Nc2cc(Br)ccc21
SCALE_UNIT: %
RECORDED_VALUE: -3.54
--
COMPOUND: CC1CCC(NC(=O)CNC2(c3ccc(F)cc3)CCOCC2)CC1 (stereo unspecified)
SCALE_UNIT: %
RECORDED_VALUE: -3.54
--
COMPOUND: CCc1cnc(NCC(c2ccncc2)N2CCOCC2)nc1 (stereo unspecified)
SCALE_UNIT: %
RECORDED_VALUE: -6.68
--
COMPOUND: Cc1cc(NS(=O)(=O)c2ccccc2F)ccc1-n1cccc1C(=O)O
SCALE_UNIT: %
RECORDED_VALUE: -1.31
--
COMPOUND: CN(C)C(=O)Cc1ccc(NC(=O)NC2CCCCC2)cc1
SCALE_UNIT: %
RECORDED_VALUE: -10.4
--
COMPOUND: Cc1nc(CNC(=O)N(Cc2ccccc2)CC(C)(C)O)oc1C
SCALE_UNIT: %
RECORDED_VALUE: -3.06
--
COMPOUND: CC(NCc1cc(F)ccc1F)c1ccc(OCC(=O)NC2CC2)cc1 (stereo unspecified)
SCALE_UNIT: %
RECORDED_VALUE: -1.77
--
COMPOUND: Cc1nn(C)c(C)c1C1CCCN1Cc1nc2ccccc2c(=O)[nH]1 (stereo unspecified)
SCALE_UNIT: %
RECORDED_VALUE: -0.414
--
COMPOUND: CCOCC1CN(c2ncc(F)cn2)Cc2cn(CC)nc21 (stereo unspecified)
SCALE_UNIT: %
RECORDED_VALUE: -11.1
--
COMPOUND: Cc1cccc(N2N=C(C(=O)NC(C)Cn3cccn3)CCC2=O)c1 (stereo unspecified)
SCALE_UNIT: %
RECORDED_VALUE: -14.7
--
COMPOUND: Cc1ccc(CN(CCN(C)C)Cc2nc3ccccc3[nH]2)s1
SCALE_UNIT: %
RECORDED_VALUE: 11.2
--
COMPOUND: CC(C)N1CCO[C@H]2CN(C(=O)Cc3cccs3)C[C@H]21
SCALE_UNIT: %
RECORDED_VALUE: -3.28
--
COMPOUND: O=C([C@@H]1CC[C@@H]2[C@@H](CCN2Cc2ccncc2)O1)N1CCCCO1
SCALE_UNIT: %
RECORDED_VALUE: -6.89
--
COMPOUND: CSc1ccccc1C(=O)N1CCN(C)C2(CCC(=O)N(C)CC2)C1 (stereo unspecified)
SCALE_UNIT: %
RECORDED_VALUE: -14.6
--
COMPOUND: COc1ccc(C)cc1NS(=O)(=O)c1ccc(CCNC(C)=O)s1
SCALE_UNIT: %
RECORDED_VALUE: -4.06
--
COMPOUND: O=C(c1ccoc1)N1CC[C@@H]2O[C@H](COCc3ccccn3)CC[C@@H]21
SCALE_UNIT: %
RECORDED_VALUE: -11.6
--
COMPOUND: CCOc1ccc(C(=O)N2CCCC(c3nccn3C)C2)cc1OCC (stereo unspecified)
SCALE_UNIT: %
RECORDED_VALUE: -5.34
--
COMPOUND: O=C(COc1ccc(C(F)(F)F)cc1)NS(=O)(=O)c1cccnc1
SCALE_UNIT: %
RECORDED_VALUE: -3.77
--
COMPOUND: COc1cc(F)c(CN2CCN(CC(C)C)C(=O)C2C)cc1OC (stereo unspecified)
SCALE_UNIT: %
RECORDED_VALUE: -1.44
--
COMPOUND: CC(CN1CCOCC1)NC(=O)c1cc(Cl)c2c(c1)OCO2 (stereo unspecified)
SCALE_UNIT: %
RECORDED_VALUE: 2.56
--
COMPOUND: COc1cc(C)nc(N2CCN(C(=O)CCc3cccs3)CC2)n1
SCALE_UNIT: %
RECORDED_VALUE: -6.26
--
COMPOUND: CCn1c(NCC2CCCO2)nc2c(C)nn(C)c2c1=O (stereo unspecified)
SCALE_UNIT: %
RECORDED_VALUE: -7.98
